Data provenance is patent US20250122183A1.

- TARGET UNDER TEST: KAT7+JADE1+EAF6+ING5 4 protein complex (Homo sapiens (Human))
- TEST DETAILS: KAT7 JADE1 assay (SAMDI-MS acetylation of H3 1-21 peptide)
- Assay type: biochemical
- TEST CONDITIONS: Morrison equation fit; replicate number in parentheses; read-out: KAT7 JADE1 Ki (nM) (replicate number)
MEASUREMENT NAME: Ki (nM)

In [3]: df
Out[3]:
                                   compound  qualifier_symbol  measured
0  COc1cccc(OC)c1S(=O)(=O)Nc1noc2cc(NC3COC3)cc(OC)c12 [Example 11]                 >      2340
1  COC(=O)c1cc(Nc2cc3onc(NS(=O)(=O)c4c(OC)cccc4OC)c3cc2OC)[nH]n1 [Example 55]                 =       663
2  COc1cc2c(NS(=O)(=O)c3c(OC)cccc3OC)noc2cc1Nc1cc(C)nn1CCO [Example 59]                 >      2870
3  COc1cc2c(NS(=O)(=O)c3c(OC)cc(-c4nccc(C)n4)cc3OC)noc2cc1Nc1cc(C2CC2)n[nH]1 [Example 214]                 =       4.3

---

- TARGET UNDER TEST: KAT8 Full length enzyme (Homo sapiens (Human), UniProt Q9H7Z6)
- Sequence (Q9H7Z6 whole entry): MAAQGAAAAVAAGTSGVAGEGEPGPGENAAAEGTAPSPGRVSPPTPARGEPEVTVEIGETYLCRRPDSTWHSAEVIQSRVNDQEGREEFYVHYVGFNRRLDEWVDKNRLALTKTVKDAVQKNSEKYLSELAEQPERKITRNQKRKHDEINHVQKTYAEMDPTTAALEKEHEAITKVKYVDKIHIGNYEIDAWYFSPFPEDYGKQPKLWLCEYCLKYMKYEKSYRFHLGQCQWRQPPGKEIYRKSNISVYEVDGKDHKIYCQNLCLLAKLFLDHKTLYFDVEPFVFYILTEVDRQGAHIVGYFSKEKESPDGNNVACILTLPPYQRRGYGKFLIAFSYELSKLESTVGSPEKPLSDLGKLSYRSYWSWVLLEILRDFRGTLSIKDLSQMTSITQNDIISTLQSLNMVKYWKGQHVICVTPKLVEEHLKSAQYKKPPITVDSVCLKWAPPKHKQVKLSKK
- TEST DETAILS: KAT8 assay (SAMDI-MS acetylation of H3 1-21 peptide)
- Type: biochemical
- TEST CONDITIONS: Morrison equation fit; replicate number in parentheses; read-out: KAT8 Ki (nM) (replicate number)
MEASUREMENT NAME: Ki

In [3]: df
Out[3]:
                              smiles_record    measured
0  CCOc1ccccc1S(=O)(=O)Nc1noc2cc(Nc3cc[nH]n3)c(OC)cc12     3110 nM
1  COc1cc2c(NS(=O)(=O)c3c(OC)cccc3OC)noc2cc1Nc1cc2n(n1)CCC21CC1  > 13000 nM
2  COc1cc2c(NS(=O)(=O)c3cc(C)ccc3OC)noc2cc1Nc1cc[nH]n1      440 nM
3  COc1cccc(OC2CCC2)c1S(=O)(=O)Nc1noc2cc(Nc3cc(C4CC4)n[nH]3)c(F)c(OC)c12  > 13000 nM

---

- TARGET UNDER TEST: KAT8 Full length enzyme (Homo sapiens (Human))
- TEST DETAILS: KAT8 assay (SAMDI-MS acetylation of H3 1-21 peptide)
- Type: biochemical
- TEST CONDITIONS: replicate number in parentheses; read-out: KAT8 Ki (nM) (replicate)
Threshold 1000 nM: Ki strictly smaller gives 1.0, otherwise 0.0.

>>> print(df.to_string())
                                   compound                         target_under_test  discrete_label
0  COc1cc2c(NS(=O)(=O)c3c(OC)cc(C4CCOCC4)cc3OC)noc2cc1Nc1cc(C2CC2)n[nH]1  KAT8 Full length enzyme (Homo sapiens (Human))             1.0
1  COc1cc2c(NS(=O)(=O)c3c(OC)cc(C(C)OC)cc3OC)noc2cc1Nc1cc(C2CC2)[nH]n1 (single isomer, unassigned) [Example 273]  KAT8 Full length enzyme (Homo sapiens (Human))             0.0
2  COc1cc2c(NS(=O)(=O)c3c(OC)cc(C(=O)N4CC[C@H](F)C4)cc3OC)noc2cc1Nc1cc(C2CC2)n[nH]1  KAT8 Full length enzyme (Homo sapiens (Human))             0.0
3  COc1cc2c(NS(=O)(=O)c3c(OC)cc(N4CCN(C)CC4)cc3OC)noc2cc1Nc1cc(C2CC2)n[nH]1  KAT8 Full length enzyme (Homo sapiens (Human))             0.0
4  COCc1cc(OC)c(S(=O)(=O)Nc2noc3cc(Nc4cc(C5CC5)n[nH]4)c(OC)cc23)c(OC)c1  KAT8 Full length enzyme (Homo sapiens (Human))             0.0
5  COc1cc2c(NS(=O)(=O)c3c(OC)cc(C(C)OC)cc3OC)noc2cc1Nc1cc(C2CC2)[nH]n1 (single isomer, unassigned) [Example 272]  KAT8 Full length enzyme (Homo sapiens (Human))             0.0
6  COc1cc2c(NS(=O)(=O)c3c(OC)cc(N4CCCC4=O)cc3OC)noc2cc1Nc1cc(C2CC2)n[nH]1  KAT8 Full length enzyme (Homo sapiens (Human))             0.0
7  COc1cc2c(NS(=O)(=O)c3c(OC)cc(N4CC[C@@H](F)C4)cc3OC)noc2cc1Nc1cc(C2CC2)n[nH]1  KAT8 Full length enzyme (Homo sapiens (Human))             1.0
8  COc1cc2c(NS(=O)(=O)c3c(OC)cc(N4CCN(C)C(=O)C4)cc3OC)noc2cc1Nc1cc(C2CC2)n[nH]1  KAT8 Full length enzyme (Homo sapiens (Human))             0.0
